Assay: Pharmacokinetics in mice, brain
Format: in vivo, C57BL/6 mice
Conditions: male, C57BL/6; mouse brain, IV, 1 mg/kg
metric.name: half-life

Name the recorded half-life for CN(C)CCc1c[nH]c2cccc(O)c12 [Psilocin, psilocin, reference compound] .
3.03 h

* * *

Assay: Pharmacokinetics in mice, brain
Assay type: in vivo, C57BL/6 mice
Conditions: male, C57BL/6; mouse brain, oral, 1 mg/kg
metric.name: Tmax (min)
Answers are plain numbers, in min.

Which Tmax is reported for this compound? CN(C)CCc1c[nH]c2cccc(O)c12 [Psilocin, psilocin, reference compound]
10.2

* * *

Record form. Attribute: 5-HT2B % Act @ Max Dose. Fill in for each entry.
Target: 5-HT2B (Homo sapiens (Human))
Sequence (P41595 whole entry, looked up, species assumed): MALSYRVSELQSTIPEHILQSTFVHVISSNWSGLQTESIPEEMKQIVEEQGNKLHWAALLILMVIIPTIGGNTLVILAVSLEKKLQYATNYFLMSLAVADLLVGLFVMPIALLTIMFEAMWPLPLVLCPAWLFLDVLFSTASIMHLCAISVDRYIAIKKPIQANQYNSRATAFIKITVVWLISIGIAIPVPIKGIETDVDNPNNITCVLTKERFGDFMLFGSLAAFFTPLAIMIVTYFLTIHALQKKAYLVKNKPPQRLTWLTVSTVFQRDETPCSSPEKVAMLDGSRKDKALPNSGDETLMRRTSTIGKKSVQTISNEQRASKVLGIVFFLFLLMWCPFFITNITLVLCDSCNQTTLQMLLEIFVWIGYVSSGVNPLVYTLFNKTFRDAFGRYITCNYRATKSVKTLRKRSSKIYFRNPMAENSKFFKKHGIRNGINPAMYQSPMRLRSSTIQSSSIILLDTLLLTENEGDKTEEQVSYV
Assay: FLIPR Ca2+ flux agonist assay, 5-HT2B
Type: cell-based
Conditions: Ca2+ flux, HEK293
Where a name gives a salt, the structure may show the parent alone.
One number for each entry, in %.

Below, 3 molecules whose answers are already recorded.
molecule: CCN(C)CCc1c[nH]c2ccccc12 [Compound 2, methylethyltryptamine]
readout.unit: %
recorded.value: 22.5
--
molecule: CCCN(CC)CCc1c[nH]c2ccc(F)cc12 [Compound 3, hydrochloride]
readout.unit: %
recorded.value: 64.64
--
molecule: CCN(C)CCc1c[nH]c2cccc(O)c12 [Compound 6]
readout.unit: %
recorded.value: 1.09

Recorded 5-HT2B % Act @ Max Dose of CCN(C)CCc1c[nH]c2ccc(F)cc12 [Compound 4, hydrochloride] , please.
0.79

* * *

Experiment: Pharmacokinetics in mice, brain
Type: in vivo, C57BL/6 mice
Conditions: male, C57BL/6; mouse brain, IV, 10 mg/kg; read-out: Cmax (C0 back-extrapolated to t = 0)
Counter-ions that a name gives are not always drawn.
metric.name: Cmax (ng/g)
Answers are plain numbers, in ng/g.

Example results:
compound: CCCN(CC)CCc1c[nH]c2ccccc12 [Compound 1, ethylpropyltryptamine]
readout.unit: ng/g
Cmax: 15400

compound: CCN(C)CCc1c[nH]c2ccccc12 [Compound 2, methylethyltryptamine]
readout.unit: ng/g
Cmax: 6250

// next entry
Please give the measured Cmax for this compound: CCN(C)CCc1c[nH]c2ccc(F)cc12 [Compound 4, hydrochloride]
7980

* * *

Experiment: Stability in mouse brain homogenate
Type: in vitro ADME, CD-1 mice
Details: mouse brain homogenate, 1 μM, 37° C.
Counter-ions that a name gives are not always drawn.
I'd be grateful if you could share measured % Compound Remaining (after 120 min) for these entries.
Give bare numbers, in %.

Solved cases (8 shown):
compound: CN(C)CCc1c[nH]c2ccccc12 [DMT, N,N-dimethyltryptamine, reference compound]
% Compound Remaining (after 120 min) (%): 0.0
//
compound: CN(C)CCc1c[nH]c2ccc(F)cc12 [Compound 5, hydrochloride]
% Compound Remaining (after 120 min) (%): 0.0
//
compound: CCN(C)CCc1c[nH]c2ccc(F)cc12 [Compound 4, hydrochloride]
% Compound Remaining (after 120 min) (%): 20.7
//
compound: COc1ccc2[nH]cc(CCN(C)C)c2c1 [Compound 5-MeO-DMT, 5-methoxy-N,N-dimethyltryptamine, reference compound]
% Compound Remaining (after 120 min) (%): 91.2
//
compound: CCN(C)CCc1c[nH]c2cccc(O)c12
% Compound Remaining (after 120 min) (%): 16.7
//
compound: CCCN(CC)CCc1c[nH]c2ccccc12
% Compound Remaining (after 120 min) (%): 113.8
//
compound: CCCN(CC)CCc1c[nH]c2ccc(F)cc12 [Compound 3, hydrochloride]
% Compound Remaining (after 120 min) (%): 76.7
//
compound: CN(C)CCc1c[nH]c2cccc(O)c12 [Psilocin, psilocin, reference compound]
% Compound Remaining (after 120 min) (%): 97.6

Could you share which % Compound Remaining (after 120 min) value was measured for "CCN(C)CCc1c[nH]c2ccccc12" ?
47.8
